Form: system (HCV RdRp (NS5B) (UniProt P26663)), quantity (pIC50), values below.
pIC50: −log10 of the molar value.

| compound | pIC50 |
| --- | --- |
| Cc1ccc(NC(=O)[C@H](CCCCN)NS(=O)(=O)c2ccccc2)cc1 | < 4.30 |
| Cc1ccc(NC(=O)[C@H](CCCCN)NC(=O)Nc2ccc(OCc3cc(F)cc(F)c3)cc2)cc1 | < 4.30 |
| Cc1ccc(NC(=O)[C@H](CCCCN)NC(=O)CNc2ccccc2Oc2ccccc2)cc1 | > 5.00 |
| Cc1ccc(NC(=O)C(CCCN)NC(=O)Nc2ccc(-c3ccccc3)cc2)cc1 (stereo not shown) [Compound 191] | < 4.30 |

====

# assay_system: HCV RdRp (NS5B)
pIC50: −log10 of the molar value.
# pIC50 per entry
measured_property: pIC50

| molecule | result |
| --- | --- |
| NCCCC[C@H](NC(=O)NCc1ccc(Cl)c(Cl)c1)C(=O)Nc1ccc(CN(C(=O)c2ccco2)C2CCCCC2)cc1 | 4.30 to 5.00 |
| NCCCCCCNC(=O)C(NC(=O)Nc1ccc(OCc2ccccc2)cc1)c1ccccc1 (stereo not shown) [Compound 320] | > 5.00 |
| Cc1cc(NC(=O)[C@H](CCCCN)NC(=O)Nc2ccc(OCc3ccccc3)cc2)n(-c2ccccc2)n1 | 4.30 to 5.00 |
| Cc1ccc(NC(=O)[C@H](CCCCN)NC(=O)Nc2ccc(OCc3ccccc3F)cc2)cc1 | 4.30 to 5.00 |
| CCOC(=O)C=Cc1ccc(NC(=O)[C@H](CCCCN)NC(=O)OCC2c3ccccc3-c3ccccc32)cc1 | 4.30 to 5.00 |
| Cc1ccc(NC(=O)C(CCCCN)NC(=O)Nc2cccc(-c3nc4ccccc4o3)c2)cc1 (stereo not shown) [Compound 271] | > 5.00 |
| COc1ccccc1CNCC(=O)N[C@@H](CCCCN)C(=O)Nc1ccc(C)cc1 | < 4.30 |

====

# assay_system: HCV RdRp (NS5B) (UniProt P26663)
# Sequence (P26663 whole entry, looked up): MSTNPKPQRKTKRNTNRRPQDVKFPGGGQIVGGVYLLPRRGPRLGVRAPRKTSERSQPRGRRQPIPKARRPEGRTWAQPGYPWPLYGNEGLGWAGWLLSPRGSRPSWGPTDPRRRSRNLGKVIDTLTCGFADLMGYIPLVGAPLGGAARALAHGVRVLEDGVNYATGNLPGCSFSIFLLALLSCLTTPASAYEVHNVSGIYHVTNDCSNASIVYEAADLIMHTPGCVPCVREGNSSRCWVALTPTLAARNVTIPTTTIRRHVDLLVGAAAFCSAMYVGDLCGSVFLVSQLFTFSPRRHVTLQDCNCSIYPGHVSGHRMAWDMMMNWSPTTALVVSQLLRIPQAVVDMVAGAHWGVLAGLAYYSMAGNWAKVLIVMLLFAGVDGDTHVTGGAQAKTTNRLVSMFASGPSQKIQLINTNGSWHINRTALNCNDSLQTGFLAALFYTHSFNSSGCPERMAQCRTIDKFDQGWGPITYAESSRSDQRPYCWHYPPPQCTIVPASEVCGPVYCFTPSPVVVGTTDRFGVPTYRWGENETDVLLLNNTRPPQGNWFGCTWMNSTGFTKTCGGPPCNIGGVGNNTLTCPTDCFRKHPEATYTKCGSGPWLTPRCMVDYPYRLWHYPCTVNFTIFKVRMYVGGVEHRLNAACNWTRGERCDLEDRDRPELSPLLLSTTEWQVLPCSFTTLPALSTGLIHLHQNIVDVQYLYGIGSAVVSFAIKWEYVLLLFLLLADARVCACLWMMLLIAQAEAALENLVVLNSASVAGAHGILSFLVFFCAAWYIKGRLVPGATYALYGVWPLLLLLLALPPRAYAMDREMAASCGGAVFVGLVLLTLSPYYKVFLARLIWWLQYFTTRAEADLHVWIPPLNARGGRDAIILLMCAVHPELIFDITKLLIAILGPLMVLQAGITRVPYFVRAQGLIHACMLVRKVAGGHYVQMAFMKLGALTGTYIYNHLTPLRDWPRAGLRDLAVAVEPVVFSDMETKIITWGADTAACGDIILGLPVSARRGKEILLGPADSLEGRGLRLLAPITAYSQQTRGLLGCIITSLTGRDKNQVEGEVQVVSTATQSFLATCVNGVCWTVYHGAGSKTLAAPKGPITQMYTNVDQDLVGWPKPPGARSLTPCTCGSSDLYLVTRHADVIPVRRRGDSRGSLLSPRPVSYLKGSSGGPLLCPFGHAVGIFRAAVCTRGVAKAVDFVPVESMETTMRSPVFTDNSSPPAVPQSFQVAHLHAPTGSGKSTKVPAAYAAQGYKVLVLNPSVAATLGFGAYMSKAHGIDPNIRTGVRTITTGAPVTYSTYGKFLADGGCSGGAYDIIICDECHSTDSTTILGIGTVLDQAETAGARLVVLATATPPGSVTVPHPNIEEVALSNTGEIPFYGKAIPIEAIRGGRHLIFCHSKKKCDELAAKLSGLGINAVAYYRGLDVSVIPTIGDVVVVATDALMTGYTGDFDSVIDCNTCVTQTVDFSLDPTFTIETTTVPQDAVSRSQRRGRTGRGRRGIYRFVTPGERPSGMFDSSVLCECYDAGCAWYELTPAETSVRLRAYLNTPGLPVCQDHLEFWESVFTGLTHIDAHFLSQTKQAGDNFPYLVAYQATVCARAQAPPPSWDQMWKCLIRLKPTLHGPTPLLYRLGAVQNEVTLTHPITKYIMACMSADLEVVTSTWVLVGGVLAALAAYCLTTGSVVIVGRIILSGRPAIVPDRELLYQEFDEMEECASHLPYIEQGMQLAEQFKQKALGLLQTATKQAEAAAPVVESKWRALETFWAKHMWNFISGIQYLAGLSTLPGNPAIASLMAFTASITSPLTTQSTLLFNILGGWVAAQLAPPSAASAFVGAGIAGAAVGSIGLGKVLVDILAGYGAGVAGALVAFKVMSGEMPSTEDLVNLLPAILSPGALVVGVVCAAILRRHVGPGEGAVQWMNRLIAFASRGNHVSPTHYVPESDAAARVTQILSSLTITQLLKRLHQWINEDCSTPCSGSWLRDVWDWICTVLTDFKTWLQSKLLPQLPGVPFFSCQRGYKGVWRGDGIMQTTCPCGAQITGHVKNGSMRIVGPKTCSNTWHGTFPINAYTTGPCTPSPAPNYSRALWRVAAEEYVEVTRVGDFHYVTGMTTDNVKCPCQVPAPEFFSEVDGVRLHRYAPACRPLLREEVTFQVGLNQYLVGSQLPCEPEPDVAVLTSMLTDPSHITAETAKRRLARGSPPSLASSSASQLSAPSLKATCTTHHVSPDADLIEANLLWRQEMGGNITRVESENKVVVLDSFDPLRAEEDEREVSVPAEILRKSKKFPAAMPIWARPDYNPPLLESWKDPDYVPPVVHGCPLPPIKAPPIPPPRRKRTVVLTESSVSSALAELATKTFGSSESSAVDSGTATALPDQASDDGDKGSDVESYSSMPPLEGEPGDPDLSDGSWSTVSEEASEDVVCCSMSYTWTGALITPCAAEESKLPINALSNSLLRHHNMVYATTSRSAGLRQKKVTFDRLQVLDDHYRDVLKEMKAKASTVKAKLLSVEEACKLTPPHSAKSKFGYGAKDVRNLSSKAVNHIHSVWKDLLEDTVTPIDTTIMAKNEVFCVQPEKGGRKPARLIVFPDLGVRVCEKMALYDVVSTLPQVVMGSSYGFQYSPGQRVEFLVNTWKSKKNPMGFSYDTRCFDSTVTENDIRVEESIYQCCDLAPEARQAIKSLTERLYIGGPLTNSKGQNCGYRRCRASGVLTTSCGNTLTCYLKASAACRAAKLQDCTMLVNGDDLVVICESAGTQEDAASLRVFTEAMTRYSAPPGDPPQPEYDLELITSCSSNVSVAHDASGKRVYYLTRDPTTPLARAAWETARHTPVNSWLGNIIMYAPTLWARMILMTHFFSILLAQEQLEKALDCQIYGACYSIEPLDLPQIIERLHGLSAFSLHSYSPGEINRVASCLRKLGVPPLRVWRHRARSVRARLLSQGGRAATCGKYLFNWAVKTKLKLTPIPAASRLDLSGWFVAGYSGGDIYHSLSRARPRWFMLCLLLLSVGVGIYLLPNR
# Assay type: biochemical, hepatitis C virus

| compound | IC50 |
| --- | --- |
| Cc1ccc(NC(=O)C(CCCCN)NC(=O)OCC2c3ccccc3-c3ccccc32)cc1 (stereo not shown) [Compound 36] | 10 to 50 µM |
| CNC(Cc1c[nH]c2ccccc12)C(=O)NC(CCCCN)C(=O)Nc1ccc(C)cc1 (stereo not shown) [Compound 90] | > 50 µM |
| Cc1ccc(COc2ccc(NC(=O)NC(CCCCN)C(=O)Nc3ccc(C)cc3)cc2)cc1 (stereo not shown) [Compound 301] | > 50 µM |
| Cc1ccc(NC(=O)[C@H](CCCCN)NC(=O)Nc2ccc(OCc3cccc(F)c3)cc2)cc1 [Compound 249] | 10 to 50 µM |

====

# assay_system: HCV RdRp (NS5B) (UniProt P26663)
pIC50: −log10 of the molar value.
# pIC50 per record follows

| molecule | pIC50 |
| --- | --- |
| Cc1ccc(NC(=O)[C@H](CCCCN)NC(=O)CNCc2cccc(Cl)c2)cc1 | < 4.30 |
| Cc1ccc(NC(=O)[C@H](CCCCN)NC(=O)Nc2ccc(O)cc2)cc1 | < 4.30 |
| Cc1ccc(NC(=O)C(Cc2ccc(N)cc2)NC(=O)OCC2c3ccccc3-c3ccccc32)cc1 (centres unmarked) | < 4.30 |
| Cc1ccc(NC(=O)C(CCCCN)NC(=O)COc2ccc(-c3ccccc3)cc2)cc1 (centres unmarked) | < 4.30 |
| Cc1ccc(NC(=O)C(CCCCN)NS(=O)(=O)c2ccc(S(=O)(=O)c3ccccc3)s2)cc1 (centres unmarked) | < 4.30 |
| Cc1ccc(NC(=O)CN(CCCCN)C(=O)Nc2ccc(OCc3ccccc3)cc2)cc1 | 4.30 to 5.00 |
| Cc1ccc(NC(=O)[C@H](CCCCN)NC(=O)Nc2cccc(OCc3ccccc3)c2)cc1 | < 4.30 |
| Cc1cc2cc(NC(=O)[C@H](Cc3ccc(CN)cc3)NC(=O)OCC3c4ccccc4-c4ccccc43)ccc2[nH]1 | 4.30 to 5.00 |
